Cited source: patent US20230285307A1

test-method-notes: Dolutegravir solubility in the presence of monovalent and divalent ions
Format: physicochemical
test-context: thermodynamic from solid; no ion (purified water); 20 mg in 12 ml
outcome-measure: solubility (µg/mL)
Please give a number only; it is taken to be in µg/mL.

IN: Item C[C@@H]1CCO[C@H]2Cn3cc(C(=O)NCc4ccc(F)cc4F)c(=O)c(O)c3C(=O)N12 [Dolutegravir] : provide solubility
OUT: 1200

###

test-method-notes: Dolutegravir solubility in the presence of monovalent and divalent ions
Format: physicochemical
test-context: aqueous buffer, thermodynamic from solid; water containing magnesium ion 500 ppm; 20 mg in 12 ml
Method: Solubility was determined by dissolving 20 mg of dolutegravir into 12 ml of water containing the specified ion (see Table 1) at a concentration of 500 ppm.
outcome-measure: solubility (µg/mL)
Please give a number only; it is taken to be in µg/mL.

IN: Item C[C@@H]1CCO[C@H]2Cn3cc(C(=O)NCc4ccc(F)cc4F)c(=O)c(O)c3C(=O)N12 [Dolutegravir] : provide solubility
OUT: 210
